- Tested system: PfMDH (mannitol dehydrogenase) (Pseudomonas fluorescens, UniProt O08355, K295Q)
- Sequence (O08355 entry or part of it K295Q): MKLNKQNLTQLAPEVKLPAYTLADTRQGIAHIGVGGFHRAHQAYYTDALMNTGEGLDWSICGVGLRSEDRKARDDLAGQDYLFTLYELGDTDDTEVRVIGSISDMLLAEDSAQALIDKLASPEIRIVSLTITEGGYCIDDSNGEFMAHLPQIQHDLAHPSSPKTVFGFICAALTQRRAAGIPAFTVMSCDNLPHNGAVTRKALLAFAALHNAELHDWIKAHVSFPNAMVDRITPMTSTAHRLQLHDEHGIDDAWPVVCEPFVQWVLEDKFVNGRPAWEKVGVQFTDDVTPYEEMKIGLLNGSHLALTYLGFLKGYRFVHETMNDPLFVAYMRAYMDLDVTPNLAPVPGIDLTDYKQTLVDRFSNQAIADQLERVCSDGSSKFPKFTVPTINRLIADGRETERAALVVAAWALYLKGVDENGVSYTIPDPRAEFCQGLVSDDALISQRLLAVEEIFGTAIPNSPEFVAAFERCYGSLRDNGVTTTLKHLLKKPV
- Assay procedure: isothermal titration calorimetry, […] °C
Readout: pKd
Please keep in mind that pKd is minus log10 of the molar concentration; only the number is needed.

Input: Write down the reported pKd of OC[C@@H](O)[C@@H](O)[C@H](O)[C@@H](O)CO [D-sorbitol] , test system: PfMDH (mannitol dehydrogenase) (Pseudomonas fluorescens, UniProt O08355, K295Q).
Output: 3.56
